- TARGET DESC: Xaa-Pro dipeptidase (Alteromonas sp.)
- ASSAY DETAILS: Ratio of kinetic constant K1 to K2 from progress curves against OPAA from Alteromonas sp. JD6.5
ENDPOINT LABEL: Ratio
Number only, no unit.

Reference set (4 entries):
compound_structure_string=CCO[P@@](=O)(OC)Oc1ccc([N+](=O)[O-])cc1 meas_value=112
compound_structure_string=CO[P@@](=O)(Oc1ccc([N+](=O)[O-])cc1)OC(C)C meas_value=100
compound_structure_string=CCO[P@](=O)(Oc1ccccc1)Oc1ccc([N+](=O)[O-])cc1 meas_value=2.8
compound_structure_string=CO[P@](=O)(Oc1ccccc1)Oc1ccc([N+](=O)[O-])cc1 meas_value=14.5

Now for the compound whose Ratio we want.
The compound `CC(C)O[P@](=O)(Oc1ccccc1)Oc1ccc([N+](=O)[O-])cc1` showed Ratio equal to 3.5
